Source listed as patent US20250066490A1.

Target: T1, human CD70 expressed on the cell surface of tumor cell lines (human, UniProt P32970 1-193)
T1 construct: whole, on cells
T1 sequence (looked up): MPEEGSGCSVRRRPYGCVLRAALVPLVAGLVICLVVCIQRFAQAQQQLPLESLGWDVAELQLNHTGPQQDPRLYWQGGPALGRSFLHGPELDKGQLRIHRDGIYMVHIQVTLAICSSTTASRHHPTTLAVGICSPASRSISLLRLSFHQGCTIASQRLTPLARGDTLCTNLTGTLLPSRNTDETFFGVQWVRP
Experiment: flow cytometry on DBTRG-05MG cells
Measurement type: pEC50
// returns pEC50 (minus log10 of molar concentration), number only

Inquiry: Return pEC50 for the following binder: 2A4, full IgG (antibody, V domains shown) VH: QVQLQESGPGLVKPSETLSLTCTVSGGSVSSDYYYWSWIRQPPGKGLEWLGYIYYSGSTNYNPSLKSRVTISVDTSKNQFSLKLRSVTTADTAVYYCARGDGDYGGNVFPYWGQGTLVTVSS VL: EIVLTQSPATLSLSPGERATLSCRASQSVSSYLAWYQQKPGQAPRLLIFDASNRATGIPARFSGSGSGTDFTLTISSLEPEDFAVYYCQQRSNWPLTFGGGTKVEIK
Reply text: 6.31

Inquiry: Return pEC50 for the following binder: 2E7, full IgG (antibody, V domains shown) VH: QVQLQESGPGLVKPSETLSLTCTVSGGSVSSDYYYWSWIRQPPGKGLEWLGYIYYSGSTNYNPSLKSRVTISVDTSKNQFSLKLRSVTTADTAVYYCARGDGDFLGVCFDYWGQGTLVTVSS VL: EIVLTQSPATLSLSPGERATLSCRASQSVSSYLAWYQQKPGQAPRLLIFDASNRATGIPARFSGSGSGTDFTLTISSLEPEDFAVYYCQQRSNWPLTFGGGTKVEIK
Reply text: 8.21

Inquiry: Return pEC50 for the following binder: 2D2, full IgG (antibody, V domains shown) VH: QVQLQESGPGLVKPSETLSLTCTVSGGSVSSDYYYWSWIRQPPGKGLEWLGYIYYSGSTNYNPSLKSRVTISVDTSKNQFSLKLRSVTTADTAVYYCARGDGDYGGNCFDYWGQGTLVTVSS VL: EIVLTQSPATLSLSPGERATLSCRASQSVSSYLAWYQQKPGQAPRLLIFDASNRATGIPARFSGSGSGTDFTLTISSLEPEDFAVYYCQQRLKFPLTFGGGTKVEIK
Reply text: 7.86
